Assay: soluble fraction after stress (log2 fold change); higher = more stays soluble; pooled small domains, quantitative proteomics
Conditions: stress: 50 degC
Record rule met whenever soluble fraction (log2) is at -0.3 or higher; record rule not met when lower.

>  <entry sequence>
HMTSHPTHTILDGKVHVFMRDGSPFWWGGFHFKGKYLRTSTKQKNLDSAKTIAQQWYFQKQTEIASGE

>  <category>
rule not met

$$$$
>  <entry sequence>
HMIGIEALAGEIDRVRQVLTGGGGLSDVQLFSQLKALNEIKAALGASPDPRAPELVQRVDQLLEAAFRS

>  <category>
rule met

$$$$
>  <entry sequence>
HMTPQDYEYLRKLLKDQSGLDLSVDKQYLLESRLVPLSRKAGLAGIPELVQKMKAGSASLTAQVVEAMTT

>  <category>
rule met

$$$$
>  <entry sequence>
HMKPDWLSDGRLIPDEVMSHLRKIAVHAVEEMGYSPEDVIKILGLSRNTIYDWLKRFREHGYEGLDTKK

>  <category>
rule met

$$$$
>  <entry sequence>
HMKELASKYEISEYMKFLIENLDKSNFFYPIEKRESMINNIFSIYSKADLSKKELNMLWGMLKKLR

>  <category>
rule not met

$$$$
>  <entry sequence>
HMTVDAVALGRRVRHLRKQAGLTLDQLAERTGVSGSHLSLVENARREPRLSLVQRIAEVLGVPVEDL

>  <category>
rule not met

$$$$
>  <entry sequence>
HMNNKVAVKSGYYFEIFNKEEIPTTLAKTKQKVKINNIQYDLYQGMSLDDERKIDDMFGDRMGYSIDDY

>  <category>
rule not met

$$$$
